- Tested On: PI3Kα H1047R (T47D cells) (Homo sapiens, UniProt P42336, H1047R)
- Construct: endogenous in cells; host or cells: T47D cells
- Sequence (P42336 whole entry H1047R): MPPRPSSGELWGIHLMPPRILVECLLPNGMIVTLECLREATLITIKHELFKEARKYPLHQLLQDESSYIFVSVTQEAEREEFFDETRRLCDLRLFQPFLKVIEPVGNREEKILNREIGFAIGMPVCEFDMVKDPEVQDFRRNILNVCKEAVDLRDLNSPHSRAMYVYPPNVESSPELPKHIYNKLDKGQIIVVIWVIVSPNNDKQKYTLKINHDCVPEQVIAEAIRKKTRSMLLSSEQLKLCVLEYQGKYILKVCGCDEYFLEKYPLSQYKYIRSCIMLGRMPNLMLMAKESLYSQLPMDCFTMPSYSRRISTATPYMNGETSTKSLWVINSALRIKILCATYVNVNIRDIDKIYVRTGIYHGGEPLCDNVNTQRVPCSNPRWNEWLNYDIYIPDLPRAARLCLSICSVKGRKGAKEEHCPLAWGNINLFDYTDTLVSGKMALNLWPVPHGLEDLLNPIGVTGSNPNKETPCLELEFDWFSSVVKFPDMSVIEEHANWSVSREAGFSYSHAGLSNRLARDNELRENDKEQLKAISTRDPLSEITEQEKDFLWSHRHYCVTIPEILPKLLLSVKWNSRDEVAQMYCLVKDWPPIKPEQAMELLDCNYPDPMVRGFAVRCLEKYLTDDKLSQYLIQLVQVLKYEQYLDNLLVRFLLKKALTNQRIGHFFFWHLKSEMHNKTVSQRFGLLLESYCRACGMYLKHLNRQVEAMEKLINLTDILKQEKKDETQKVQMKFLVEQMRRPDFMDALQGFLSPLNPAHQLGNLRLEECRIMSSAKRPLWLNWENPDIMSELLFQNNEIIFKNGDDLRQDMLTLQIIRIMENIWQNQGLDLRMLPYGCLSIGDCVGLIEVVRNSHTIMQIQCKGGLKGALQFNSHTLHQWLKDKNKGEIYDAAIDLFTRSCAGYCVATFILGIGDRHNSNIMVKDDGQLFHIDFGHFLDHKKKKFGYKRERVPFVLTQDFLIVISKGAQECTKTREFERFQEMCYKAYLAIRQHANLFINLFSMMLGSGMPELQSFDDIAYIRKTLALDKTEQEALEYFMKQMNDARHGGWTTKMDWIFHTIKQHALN
- Sequence (P27986 whole entry partner): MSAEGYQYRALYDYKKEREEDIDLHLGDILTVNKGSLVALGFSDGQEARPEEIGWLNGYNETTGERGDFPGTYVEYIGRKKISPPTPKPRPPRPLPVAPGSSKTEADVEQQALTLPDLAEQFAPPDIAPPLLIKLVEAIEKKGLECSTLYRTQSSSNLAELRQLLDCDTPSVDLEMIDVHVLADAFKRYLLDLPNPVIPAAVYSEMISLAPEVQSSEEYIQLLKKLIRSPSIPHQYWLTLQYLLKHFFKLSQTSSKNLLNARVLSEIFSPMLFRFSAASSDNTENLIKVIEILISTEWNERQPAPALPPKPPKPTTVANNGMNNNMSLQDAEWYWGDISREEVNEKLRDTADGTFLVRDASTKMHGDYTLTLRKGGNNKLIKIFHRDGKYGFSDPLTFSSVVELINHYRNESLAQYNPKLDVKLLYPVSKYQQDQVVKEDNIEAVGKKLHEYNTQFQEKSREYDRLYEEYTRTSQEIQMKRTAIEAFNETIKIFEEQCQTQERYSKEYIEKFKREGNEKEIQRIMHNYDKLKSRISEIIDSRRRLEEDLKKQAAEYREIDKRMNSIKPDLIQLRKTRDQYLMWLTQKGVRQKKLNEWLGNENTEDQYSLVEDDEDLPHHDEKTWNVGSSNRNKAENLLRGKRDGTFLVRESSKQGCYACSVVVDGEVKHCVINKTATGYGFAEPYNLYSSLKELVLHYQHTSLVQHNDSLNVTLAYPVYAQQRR
- Protocol Description: PI3Kα cellular assay: pAKT HTRF in T47D cells after EGF stimulation
- Format: cell-based
- Test Parameters: selectivity of T47D (H1047R) over SKBR3 (WT) pAKT IC50
Experimental Endpoint: T47D pAKT S473 HTRF IC50 (H1047R): T47D (H1047R) selectivity over SKBR3 (WT)

Sample records with T47D pAKT S473 HTRF IC50 (H1047R): T47D (H1047R) selectivity over SKBR3 (WT):
# Compound, Data Value
data = [
    ("Cc1cc([C@H](C)Nc2ccccc2C(=O)O)c2nc(-c3cccnc3)c(C)c(=O)n2c1 [Compound 950]", "C (C denotes ≤5-fold)"),
    ("Cc1cc([C@H](C)Nc2ccccc2S(N)(=O)=O)c2nc(-c3ccc4c(c3)c(C)nn4C3CC3)c(C)c(=O)n2c1 [Compound 962]", "C (C denotes ≤5-fold)"),
    ("Cc1cc([C@@H](C)Nc2ccccc2C(=O)O)c2nc(-c3ccc4c(c3)c(C(F)(F)F)nn4C)cc(=O)n2c1 [Compound 737]", "A (A denotes >20-fold)"),
    ("Cc1cc([C@@H](C)Nc2ccccc2C(=O)O)c2nc(C3CCN(S(N)(=O)=O)CC3)cc(=O)n2c1 [Compound 755]", "C (C denotes ≤5-fold)"),
]

The value of T47D pAKT S473 HTRF IC50 (H1047R): T47D (H1047R) selectivity over SKBR3 (WT) measured for the compound Cc1cc([C@@H](C)Nc2ccccc2C(=O)O)c2nc(C3CCOCC3)c(C)c(=O)n2c1 [Compound 1055] turned out to be A (A denotes >20-fold)

The value of T47D pAKT S473 HTRF IC50 (H1047R): T47D (H1047R) selectivity over SKBR3 (WT) measured for the compound Cc1cc([C@H](C)Nc2ccccc2C(=O)O)c2nc(N3CCC(C)(C)CC3)cc(=O)n2c1 [Compound 728] turned out to be C (C denotes ≤5-fold)

The value of T47D pAKT S473 HTRF IC50 (H1047R): T47D (H1047R) selectivity over SKBR3 (WT) measured for the compound CC(=O)Nc1nn(C)c2ccc(-c3cc(=O)n4cc(C)cc([C@@H](C)Nc5ccccc5C(=O)O)c4n3)cc12 [Compound 793] turned out to be C (C denotes ≤5-fold)

* * *

- Tested On: PI3Kα H1047R (T47D cells) (Homo sapiens, UniProt P42336, H1047R)
- Construct: endogenous in cells; host or cells: T47D cells
- Protocol Description: PI3Kα cellular assay: pAKT HTRF in T47D cells after EGF stimulation
- Type: cell-based
- Test Parameters: T47D cells (PI3Kα H1047R), pAKT S473 HTRF, 1 hr compound, 20 ng/ml EGF 10 min
// reported IC50 per item

# Compound, Experimental Endpoint, Data Value
measured = [
    ("Cc1cc([C@H](C)Nc2ccccc2C(=O)O)c2nc(-c3ccc4[nH]c(=O)[nH]c4c3)cc(=O)n2c1", "IC50", "> 2000 nM"),
    ("CONC(=O)c1ccc(-c2cc(=O)n3cc(C)cc(C(C)NC4=CC=CCC4C(=O)O)c3n2)c(OC)c1 (stereo not drawn)", "IC50", "> 2000 nM"),
    ("Cc1cc([C@@H](C)Nc2ccccc2C(=O)O)c2cc(-c3ccncn3)cc(=O)n2c1", "IC50", "> 2000 nM"),
    ("Cc1cc(C(C)Nc2ccccc2C(=O)O)c2nc(C3CCN(C(=O)C4(N)CC4)CC3)cc(=O)n2c1 (stereo not drawn)", "IC50", "> 2000 nM"),
]

The value of IC50 measured for the compound Cc1cc(C(C)Nc2ccccc2C(=O)O)c2nc(-c3ccc(CN4CCN(C)CC4)cc3)cc(=O)n2c1 (stereo not drawn) turned out to be > 2000 nM

The value of IC50 measured for the compound "Cc1cc([C@@H](C)Nc2ccccc2C(=O)O)c2nc(N3CC(Cl)C3)cc(=O)n2c1" turned out to be < 100 nM

The value of IC50 measured for the compound "Cc1cc([C@@H](C)Nc2cc(F)cc(F)c2)c2nc(N3CCOCC3)cc(=O)n2c1" turned out to be 500 to 2000 nM
